# Tested on: NCI-H522
# assay name: NCI tumour cell line growth inhibition, 48 h
The source made the active and inactive calls. Rule as the data show it: active = GI50 up to about 1.1 µM and inactive = higher. Where a SMILES comes first, the peptide text is derived from it. The star is where a group is joined. Fmoc = O=C(OCC1c2ccccc2-c2ccccc21)*; OBn = c1ccc(CO*)cc1; tBu = CC(C)(C)*
recorded metric: GI50

O=C1OC(C2Cc3ccccc3C2=O)c2ccccc21 (stereo not given) ... > 100 µM (inactive)
COc1ccc(N2C(=O)C3c4[nH]c5ccccc5c4C4CCC(c5ccccc5)CC4C3C2=O)cc1 (stereo not given) ... 10.2 µM (inactive)
CC(OC(C)(C)C)C(NC(=O)OCC1c2ccccc2-c2ccccc21)C(=O)NC(Cc1ccccc1)C(=O)OCc1ccccc1 (stereo not given) (Fmoc-Thr(tBu)-Phe-OBn; configuration not given here) ... > 100 µM (inactive)
COc1cc(-c2coc3c(OC)c(OC4OC(CO)C(O)C(O)C4O)c(OC)cc3c2=O)cc(OC)c1C (stereo not given) ... 3.36 µM (inactive)

# evaluate next
For record O=C1c2ccccc2-c2nc3ccncc3n21 the listed GI50 is > 100 µM (inactive)

====

# System: HOP-92
# assay name: NCI tumour cell line growth inhibition, 48 h
Active and inactive are the calls of the source. No stated cut-off is given here; in the data, active = GI50 up to about 1.1 µM and inactive = higher.
Choose one outcome from this list and give only that: 1.0 (active), 0.0 (inactive)

CCOc1c(Br)cc(Br)cc1C=C(C#N)C#N ... 0.0
Cc1cc2c(-c3ccccc3)cc(=O)[nH]c2cc1N ... 0.0
O=C1NC2(CCCCC2)C2=C1CCCCC2 ... 0.0

Q: Please share the test call associated with Cc1c2cnccc2c(C)c2c1c1ccccc1n2CCCCCCNCc1ccccc1 .
A: 0.0

Q: Please share the test call associated with C(=N\N=C1NCCN1)/c1ccc2ccccc2c1 .
A: 1.0

====

# Test system: M14
# assay name: NCI tumour cell line growth inhibition, 48 h
The source made the active and inactive calls. Cut-off read from the data, not from the text of the source: active = GI50 up to about 1.1 µM and inactive = higher. Where a SMILES comes first, the peptide text is derived from it. The star is where a group is joined. Fmoc = O=C(OCC1c2ccccc2-c2ccccc21)*; OBn = c1ccc(CO*)cc1; tBu = CC(C)(C)*
Choose one outcome from this list and give only that: label 1 = active, label 0 = inactive

CC(C1CCCC1=O)C1CCCC1=O (stereo not drawn) ... label 0
CC(OC(C)(C)C)C(NC(=O)OCC1c2ccccc2-c2ccccc21)C(=O)NC(Cc1ccccc1)C(=O)OCc1ccccc1 (stereo not drawn) (Fmoc-Thr(tBu)-Phe-OBn; configuration not given here) ... label 0
Cc1cc2cc3cc(C)c(N)cc3nc2cc1N ... label 0

--- query ---
Q: Please share the test call associated with CSc1nc(NC2OCC(OC(C)=O)C(OC(C)=O)C2OC(C)=O)c2c(OC(C)=O)c(C)c(=O)oc2n1 (stereo not drawn) .
A: label 0

====

Quick reference for GI50 among some molecules
# System: SK-OV-3
# assay name: NCI tumour cell line growth inhibition, 48 h
Active and inactive are the calls of the source. No stated cut-off is given here; in the data, active = GI50 up to about 1.1 µM and inactive = higher.

Worked examples, 3 molecules total:
COCc1nc2c(OC)c(-c3nc4ccc(N5CCN(C)CC5)nc4[nH]3)cc(OC)c2n1C ... 66.5 µM (inactive)
CCC(=O)O[C@H]1CC[C@H]2[C@@H]3CCC4=C/C(=N/OC(=O)c5cccc6c(=O)c7ccccc7[nH]c56)CC[C@]4(C)[C@H]3CC[C@]12C ... > 100 µM (inactive)
CC1(C)OC2C(CO)OC(n3cnc(N)nc3=O)C2O1 (stereo not given) ... > 100 µM (inactive)

For record CN[C@H](C)[C@@H](OC)c1ccccc1 the listed GI50 is > 100 µM (inactive)

For record C=CC(c1ccccc1)[C@@]1(OC(C)=O)C(=O)C(=O)OC1C1COC(C)(C)O1 (stereo not given in full) the listed GI50 is 18.1 µM (inactive)

Source listed as ChEMBL document CHEMBL1201862.
